Hey, just so you know, these numbers are from ChEMBL document CHEMBL4184120.

test system: NCI-H460; assay: Antiproliferative activity against human NCI-H460 cells after 48 by hrs MTT assay; assay type: functional, cell-based
List of IC50 values.

Field: example entries. Status: answers known.
CCCCCCCCCCCCC1=C(O)C(=O)c2cc(OC)cc(OC)c2C1=O : > 100 µM
CCCCCCCCC1=C(O)C(=O)c2cc(OC)cc(OC)c2C1=O : > 100 µM
COC1=C(CCC2CCCCC2)C(=O)c2c(OC)cc(OC)cc2C1=O : 43.1 µM
CCCC1=C(O)C(=O)c2cc(OC)cc(OC)c2C1=O : > 100 µM
CCCCC1=C(Cl)C(=O)c2cc(OC)cc(OC)c2C1=O : 38.7 µM

**Q:** Which IC50 is listed for COc1cc(OC)c2c(c1)C(=O)C(O)=C(C)C2=O ?
**A:** > 100 µM

**Q:** Which IC50 is listed for COc1cc(OC)c2c(c1)C(=O)C(Cl)=C(CCC1CCCCC1)C2=O ?
**A:** 61 µM

**Q:** Which IC50 is listed for COc1ccc(CCC2=C(Cl)C(=O)c3cc(OC)cc(OC)c3C2=O)cc1 ?
**A:** > 100 µM

**Q:** Which IC50 is listed for CCC1=C(O)C(=O)c2cc(OC)cc(OC)c2C1=O ?
**A:** > 100 µM

**Q:** Which IC50 is listed for CCCCC1=C(OC)C(=O)c2cc(OC)cc(OC)c2C1=O ?
**A:** 75.2 µM

**Q:** Which IC50 is listed for CCCCCCC1=C(O)C(=O)c2cc(OC)cc(OC)c2C1=O ?
**A:** > 100 µM

----------
experiment: Selectivity index, ratio of IC50 for human WI38 cells to IC50 for human HL60 cells; type: toxicity; conditions: WI38 cells and HL60 cells, read-out: Ratio IC50
METRIC_NAME: selectivity ratio
Lab note: jot down the number only; don't add units.

Field: example entries. Status: answers known.
COc1ccc(CCC2=C(Cl)C(=O)c3cc(OC)cc(OC)c3C2=O)cc1 : 1.8
COc1cc(OC)c2c(c1)C(=O)C(Cl)=C(CCC1CCCCC1)C2=O : 3.7

**Q:** Which selectivity ratio is listed for CCCCC1=C(Cl)C(=O)c2cc(OC)cc(OC)c2C1=O ?
**A:** 10.7
